target: Matrix metalloproteinase-14 (Homo sapiens)
measureName: Ki (nM)
Please state the figure in nM; there is no need to write the unit.

Would you mind telling me what Ki value was observed for C[C@@H](NC(=O)[C@H](O)[C@@H](O)C(=O)N1CCC[C@@H]1c1cccc(Cl)c1)c1ccc(-n2cccn2)cc1 ?
1100

###

target: Disintegrin and metalloproteinase domain-containing protein 17 (Homo sapiens); assay: Inhibition of TACE
Sequence (P78536 whole entry, the tested form may be a part): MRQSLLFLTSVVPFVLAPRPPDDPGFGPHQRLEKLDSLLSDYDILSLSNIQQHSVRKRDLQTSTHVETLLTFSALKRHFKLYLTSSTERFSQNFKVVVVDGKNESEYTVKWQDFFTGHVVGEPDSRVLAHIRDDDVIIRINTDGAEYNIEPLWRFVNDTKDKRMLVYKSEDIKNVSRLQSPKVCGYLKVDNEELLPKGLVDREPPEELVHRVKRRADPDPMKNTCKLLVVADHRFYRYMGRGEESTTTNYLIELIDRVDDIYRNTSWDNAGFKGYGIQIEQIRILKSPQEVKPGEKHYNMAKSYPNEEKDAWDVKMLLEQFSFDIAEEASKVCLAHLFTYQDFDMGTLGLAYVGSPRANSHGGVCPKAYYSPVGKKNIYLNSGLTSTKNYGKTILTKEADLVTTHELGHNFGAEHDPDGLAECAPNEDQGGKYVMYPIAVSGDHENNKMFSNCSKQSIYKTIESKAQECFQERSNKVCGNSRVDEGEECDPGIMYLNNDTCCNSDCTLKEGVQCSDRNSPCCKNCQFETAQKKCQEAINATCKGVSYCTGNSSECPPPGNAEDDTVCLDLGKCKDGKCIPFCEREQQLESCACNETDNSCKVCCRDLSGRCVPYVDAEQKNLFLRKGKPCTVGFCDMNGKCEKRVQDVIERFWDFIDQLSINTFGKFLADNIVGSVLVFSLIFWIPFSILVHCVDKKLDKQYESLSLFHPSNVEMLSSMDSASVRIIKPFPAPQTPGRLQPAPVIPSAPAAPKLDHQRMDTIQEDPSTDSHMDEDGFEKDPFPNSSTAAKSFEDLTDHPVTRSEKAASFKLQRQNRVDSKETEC
In this section we review reported pKi values for a set of compounds.
Please treat pKi as minus the base-10 logarithm of the molar concentration.

# count of solved cases: 4
compound	measuredValue
O=C(NCc1ccc(Cc2ccccc2Cl)s1)[C@H](O)[C@@H](O)C(=O)N1CCC[C@@H]1c1cccc(Cl)c1	8.03
O=C(NCc1ccc(-c2cccs2)cc1)[C@H](O)[C@@H](O)C(=O)N1CCC[C@@H]1c1ccccc1	7.55
O=C(NCc1ccc(-c2nccs2)cc1)[C@H](O)[C@@H](O)C(=O)N1CCCC1c1cccc(Cl)c1 (mixture of isomers)	7.13
Cc1nc2ccccc2n1Cc1ccc(CNC(=O)[C@H](O)[C@@H](O)C(=O)N2CCC[C@@H]2c2cccc(Cl)c2)s1	8.40

Turning now to a further record.
Would you mind telling me what pKi value was observed for Cc1nc2ccccc2n1Cc1ccc(CNC(=O)[C@H](O)[C@@H](O)C(=O)N2CCCC2c2nccs2)s1 (mixture of isomers) ?
8.05

###

assay: Clearance in Sprague-Dawley rat at 3 mg/kg, iv; assay type: ADME, organism-based; parameters: dose 3 mg/kg, route intravenous; settings: in vivo
measureName: clearance (mL/min/kg)
Please state the figure in mL/min/kg; there is no need to write the unit.

Would you mind telling me what clearance value was observed for C[C@@H](NC(=O)[C@H](O)[C@@H](O)C(=O)N1CCC[C@@H]1c1cccc(Cl)c1)c1ccc(-n2cccn2)cc1 ?
35

###

Target: Interstitial collagenase (Homo sapiens, UniProt P03956)
Sequence (P03956 whole entry): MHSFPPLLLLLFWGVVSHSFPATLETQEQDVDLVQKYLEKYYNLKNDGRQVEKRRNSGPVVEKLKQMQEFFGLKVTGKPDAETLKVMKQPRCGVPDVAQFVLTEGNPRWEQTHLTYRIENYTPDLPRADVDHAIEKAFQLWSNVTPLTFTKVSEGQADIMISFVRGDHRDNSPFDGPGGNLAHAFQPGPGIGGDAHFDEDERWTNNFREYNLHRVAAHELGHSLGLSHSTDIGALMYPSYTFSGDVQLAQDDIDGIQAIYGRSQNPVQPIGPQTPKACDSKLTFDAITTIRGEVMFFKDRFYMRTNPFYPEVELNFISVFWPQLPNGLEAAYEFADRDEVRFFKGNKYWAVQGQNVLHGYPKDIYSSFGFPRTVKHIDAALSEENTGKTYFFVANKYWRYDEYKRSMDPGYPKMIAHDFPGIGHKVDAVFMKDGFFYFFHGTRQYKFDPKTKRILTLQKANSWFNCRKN
measureName: Ki

Notebook: pull reported Ki for Interstitial collagenase (Homo sapiens, UniProt P03956), entry C[C@@H](NC(=O)[C@H](O)[C@@H](O)C(=O)N1CCC[C@@H]1c1cccc(Cl)c1)c1ccc(-n2cccn2)cc1
> 100 µM

// provenance: ChEMBL document CHEMBL1777681
